- STUDY TARGET: MKP-1 (Homo sapiens, UniProt P28562)
- Sequence (P28562 whole entry, species assumed): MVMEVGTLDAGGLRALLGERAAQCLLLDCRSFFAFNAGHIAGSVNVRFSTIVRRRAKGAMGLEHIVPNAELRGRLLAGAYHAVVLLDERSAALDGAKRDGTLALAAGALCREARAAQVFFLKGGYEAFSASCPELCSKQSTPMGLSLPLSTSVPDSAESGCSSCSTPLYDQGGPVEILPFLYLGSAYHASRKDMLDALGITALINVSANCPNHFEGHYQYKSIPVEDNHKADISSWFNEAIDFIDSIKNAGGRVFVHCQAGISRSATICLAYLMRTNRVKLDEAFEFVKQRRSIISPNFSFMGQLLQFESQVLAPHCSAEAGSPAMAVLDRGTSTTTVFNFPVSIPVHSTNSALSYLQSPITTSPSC
- PROTOCOL DESCRIPTION: biochemical
- TEST SETTINGS: read-out: MKP-1 + 25 mM DTT % inhibition at 50 μM
Measured inhibition at 50 µM, listed per entry for reference.
ENDPOINT LABEL: inhibition at 50 µM (%)

| MOLECULE | RESULT VALUE |
| --- | --- |
| Cn1ncnc2c(=O)n(C)c(=O)nc1-2 [compound 4251194] | 98 |
| N#Cc1c(N)sc(=S)c2c1CCN(Cc1ccccc1)C2 [compound 845964] | 35.7 |
| CCn1nc(-c2ccccc2)nc2c(=O)n(C)c(=O)nc1-2 [compound 845167] | 96.2 |
| CCCCn1c(NC(=O)c2ccccc2)c(C#N)c2nc3ccccc3nc21 [compound 3712327] | -5.25 |
| CCn1nc(-c2cccs2)nc2c(=O)n(C)c(=O)nc1-2 [compound 850758] | 98.2 |
